Species: Mus musculus
Test: Inhibition of the electrically induced muscle contractions was determined using the mouse vas deferens
Format: functional
Conditions: Mus musculus
MEASUREMENT TYPE: EC50

INSERT INTO assay_data (compound_smiles, result) VALUES
  ('C=CCN1C[C@H](C)N([C@@H](c2cccc(O)c2)c2cccc(C(=O)N(CCC)c3ccc(F)cc3)c2)C[C@H]1C', '680 pM'),
  ('C=CCN1C[C@H](C)N([C@H](c2cccc(O)c2)c2cccc(C(=O)N(CC)CC)c2)C[C@H]1C', '5850 pM'),
  ('C=CCN1C[C@H](C)N([C@@H](c2cccc(O)c2)c2cccc(C(=O)N3CCCc4ccccc43)c2)C[C@H]1C', '1050 pM'),
  ('C=CCN1C[C@H](C)N([C@@H](c2cccc(O)c2)c2cccc(C(=O)N(C)c3ccc(OC)cc3)c2)C[C@H]1C', '360 pM');
